# System: Leishmania major
# methodNotes: Antileishmanial activity against Leishmania major IR-173 promastigotes assessed as inhibition of parasite growth incubated for 72 hrs by resazurin dye based assay
# Format: functional, organism-based
# studyConditions: IR-173, 72 h
Known pIC50 of a selection of compounds
Recall that pIC50 is obtained by taking minus log10 of the concentration measured in molar.

Query: pIC50; subject: CCCC(=O)OCC1(C)O[C@@H]2O[C@@]3(C)CC[C@H]4[C@H](C)CC[C@@H]1[C@@]24OO3 (stereo partly drawn)
4.92

Query: pIC50; subject: C[C@@H]1CC[C@H]2C(C)(COC(=O)c3ccc(F)cc3)O[C@@H]3O[C@@]4(C)CC[C@@H]1[C@]32OO4 (stereo partly drawn)
5.12

Query: pIC50; subject: CCCCCC(=O)OCC1(C)O[C@@H]2O[C@@]3(C)CC[C@H]4[C@H](C)CC[C@@H]1[C@@]24OO3 (stereo partly drawn)
4.86
